Values were extracted from the kinase profiling compilation of Christmann-Franck et al. (2016).

Target or test system: ABL2 (human) (UniProt P42684)
Sequence (P42684 whole entry, looked up): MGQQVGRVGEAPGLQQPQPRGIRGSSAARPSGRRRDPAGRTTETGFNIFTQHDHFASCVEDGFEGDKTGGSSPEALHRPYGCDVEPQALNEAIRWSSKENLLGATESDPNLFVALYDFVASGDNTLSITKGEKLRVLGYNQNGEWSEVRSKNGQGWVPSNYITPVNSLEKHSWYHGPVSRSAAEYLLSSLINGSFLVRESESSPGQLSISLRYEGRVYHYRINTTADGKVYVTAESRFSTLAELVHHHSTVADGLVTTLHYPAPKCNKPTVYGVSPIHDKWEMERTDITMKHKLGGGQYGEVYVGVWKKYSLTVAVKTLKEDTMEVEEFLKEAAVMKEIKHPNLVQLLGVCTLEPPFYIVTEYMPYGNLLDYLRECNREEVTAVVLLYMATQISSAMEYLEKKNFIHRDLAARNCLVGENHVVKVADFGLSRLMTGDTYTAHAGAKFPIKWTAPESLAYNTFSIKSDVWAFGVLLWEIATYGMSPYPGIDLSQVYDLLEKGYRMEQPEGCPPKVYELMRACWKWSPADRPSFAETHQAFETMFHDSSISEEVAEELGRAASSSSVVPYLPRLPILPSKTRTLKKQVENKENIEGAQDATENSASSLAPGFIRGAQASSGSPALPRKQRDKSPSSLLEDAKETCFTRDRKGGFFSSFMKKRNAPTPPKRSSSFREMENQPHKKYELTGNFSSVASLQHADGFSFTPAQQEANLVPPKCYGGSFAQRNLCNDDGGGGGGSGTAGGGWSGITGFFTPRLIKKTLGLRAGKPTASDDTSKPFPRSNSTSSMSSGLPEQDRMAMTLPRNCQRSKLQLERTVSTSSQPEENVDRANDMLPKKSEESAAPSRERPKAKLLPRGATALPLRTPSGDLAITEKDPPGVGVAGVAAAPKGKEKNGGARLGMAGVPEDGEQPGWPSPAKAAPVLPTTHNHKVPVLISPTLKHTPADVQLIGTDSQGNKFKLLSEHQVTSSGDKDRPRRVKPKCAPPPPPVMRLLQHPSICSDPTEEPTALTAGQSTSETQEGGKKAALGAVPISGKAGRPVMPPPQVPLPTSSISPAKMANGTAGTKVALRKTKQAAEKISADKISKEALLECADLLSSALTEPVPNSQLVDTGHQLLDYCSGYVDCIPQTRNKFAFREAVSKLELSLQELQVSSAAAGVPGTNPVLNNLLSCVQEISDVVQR
Experimental details: radiometric filter-binding kinase assay, Kinase HotSpot
Conditions used: compound 0.5 µM; ATP 10 µM
Endpoint: residual activity (%)
Number in %, nothing else.

// below: answered compounds
Nc1nnc2[nH]c3ccccc3nc1-2; 95.5
CN(C)C[C@H]1CCn2c(c(C3=C(c4cn(C)c5ccccc45)C(=O)NC3=O)c3ccccc32)C1; 96.3
CC(C)c1nn(-c2c(Cl)cccc2Cl)c2nc(Cc3ccc(OCCO)cc3)nc(O)c12; 96.3

Now for the compound whose residual activity we want.
For the compound COc1ccc(OC)c2c(=S)c3ccccc3[nH]c12 , give its measured residual activity value. 92.5

###

Target or test system: UniProt:Q99683
Sequence (Q99683 whole entry, looked up): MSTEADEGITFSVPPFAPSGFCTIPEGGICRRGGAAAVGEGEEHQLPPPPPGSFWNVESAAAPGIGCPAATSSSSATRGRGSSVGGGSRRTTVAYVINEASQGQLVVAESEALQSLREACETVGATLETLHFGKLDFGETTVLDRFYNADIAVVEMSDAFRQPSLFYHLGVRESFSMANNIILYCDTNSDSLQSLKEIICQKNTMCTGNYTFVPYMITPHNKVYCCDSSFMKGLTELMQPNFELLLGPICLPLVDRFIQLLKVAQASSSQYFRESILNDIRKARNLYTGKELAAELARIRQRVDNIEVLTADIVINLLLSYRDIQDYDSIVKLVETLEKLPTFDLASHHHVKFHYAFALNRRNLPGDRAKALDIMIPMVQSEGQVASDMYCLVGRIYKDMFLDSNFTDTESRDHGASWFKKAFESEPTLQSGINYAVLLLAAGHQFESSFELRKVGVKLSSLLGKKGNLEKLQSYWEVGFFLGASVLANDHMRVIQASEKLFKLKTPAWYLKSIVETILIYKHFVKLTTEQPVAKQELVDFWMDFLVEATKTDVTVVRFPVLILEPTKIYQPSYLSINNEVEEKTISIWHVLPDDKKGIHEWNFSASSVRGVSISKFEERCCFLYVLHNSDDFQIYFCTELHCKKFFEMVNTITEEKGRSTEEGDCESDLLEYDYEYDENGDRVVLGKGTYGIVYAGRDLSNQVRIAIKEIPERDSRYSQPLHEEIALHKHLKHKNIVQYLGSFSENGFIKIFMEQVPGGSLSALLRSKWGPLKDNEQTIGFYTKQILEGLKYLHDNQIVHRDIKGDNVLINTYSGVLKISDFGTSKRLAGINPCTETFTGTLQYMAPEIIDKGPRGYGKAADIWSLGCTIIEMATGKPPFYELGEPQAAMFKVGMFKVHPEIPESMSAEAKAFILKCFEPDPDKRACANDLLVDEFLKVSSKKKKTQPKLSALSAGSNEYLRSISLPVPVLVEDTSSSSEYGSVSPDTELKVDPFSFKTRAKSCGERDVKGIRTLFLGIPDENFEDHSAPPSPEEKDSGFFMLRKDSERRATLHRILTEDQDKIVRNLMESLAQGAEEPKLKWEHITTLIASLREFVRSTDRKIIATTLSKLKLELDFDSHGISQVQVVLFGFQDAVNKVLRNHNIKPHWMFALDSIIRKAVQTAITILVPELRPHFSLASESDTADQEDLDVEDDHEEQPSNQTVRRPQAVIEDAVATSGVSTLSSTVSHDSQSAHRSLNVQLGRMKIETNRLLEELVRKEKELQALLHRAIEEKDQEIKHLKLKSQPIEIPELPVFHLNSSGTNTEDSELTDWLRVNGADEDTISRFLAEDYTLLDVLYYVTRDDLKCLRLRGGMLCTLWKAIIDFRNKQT
Experimental details: radiometric filter-binding kinase assay, Kinase HotSpot
Conditions used: compound 0.5 µM; ATP 10 µM
Endpoint: residual activity (%)
Answer in %, number only, no unit symbol.

Cn1cnc2cc3c(Nc4cccc(Br)c4)ncnc3cc21; 110
Nc1nccc(-c2c(-c3ccc(F)cc3)ncn2C2CCNCC2)n1; 102

Find the measured residual activity of O=C1NC(=O)C(c2c[nH]c3ccccc23)=C1c1c[nH]c2ccccc12 with UniProt:Q99683 as test system. 106

Report the value of residual activity obtained on UniProt:Q99683 for O=C(O)/C=C/c1cc(Br)c(Br)c(Br)c1Br . 94

###

Entries and their residual activity
Target or test system: CDK1 CCNA2 (human) (UniProt P06493+P20248)
Sequence (P06493 whole entry, looked up): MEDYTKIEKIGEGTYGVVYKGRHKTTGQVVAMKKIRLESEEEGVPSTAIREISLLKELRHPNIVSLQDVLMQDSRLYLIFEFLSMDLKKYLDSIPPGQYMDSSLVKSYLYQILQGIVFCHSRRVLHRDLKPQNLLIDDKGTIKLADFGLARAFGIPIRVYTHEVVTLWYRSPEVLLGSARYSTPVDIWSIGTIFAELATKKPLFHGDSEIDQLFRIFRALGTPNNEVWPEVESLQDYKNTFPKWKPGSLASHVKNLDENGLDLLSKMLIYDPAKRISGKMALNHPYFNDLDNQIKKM
Sequence (P20248 whole entry, looked up): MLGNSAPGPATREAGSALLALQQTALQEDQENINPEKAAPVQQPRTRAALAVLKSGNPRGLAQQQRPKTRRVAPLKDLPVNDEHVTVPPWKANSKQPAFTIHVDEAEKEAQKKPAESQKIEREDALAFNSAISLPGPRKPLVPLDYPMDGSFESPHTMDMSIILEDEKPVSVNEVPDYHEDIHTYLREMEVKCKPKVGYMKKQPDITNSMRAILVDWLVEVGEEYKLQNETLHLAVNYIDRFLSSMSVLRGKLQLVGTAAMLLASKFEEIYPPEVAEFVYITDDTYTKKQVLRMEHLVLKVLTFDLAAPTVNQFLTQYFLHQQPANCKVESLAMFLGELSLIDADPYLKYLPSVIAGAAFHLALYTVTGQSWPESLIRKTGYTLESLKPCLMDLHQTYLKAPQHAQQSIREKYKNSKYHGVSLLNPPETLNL
Experimental details: radiometric filter-binding kinase assay, Kinase HotSpot
Conditions used: compound 0.5 µM; ATP 10 µM
Numeric answer only, unit % assumed.

Specify residual activity for CCN(CC)CCCCN1c2ccccc2Oc2ccc(Cl)cc21 and stop. 99.3

Entry COc1ccc(CNC(=O)Nc2ncc([N+](=O)[O-])s2)cc1 needs its residual activity filled in; supply it. 93.4

Quick one: give measured residual activity for O=C1NC(=O)C(c2c[nH]c3ccccc23)=C1c1c[nH]c2ccccc12 96.3

###

Target or test system: PBK (human) (UniProt Q96KB5)
Sequence (Q96KB5 whole entry, looked up): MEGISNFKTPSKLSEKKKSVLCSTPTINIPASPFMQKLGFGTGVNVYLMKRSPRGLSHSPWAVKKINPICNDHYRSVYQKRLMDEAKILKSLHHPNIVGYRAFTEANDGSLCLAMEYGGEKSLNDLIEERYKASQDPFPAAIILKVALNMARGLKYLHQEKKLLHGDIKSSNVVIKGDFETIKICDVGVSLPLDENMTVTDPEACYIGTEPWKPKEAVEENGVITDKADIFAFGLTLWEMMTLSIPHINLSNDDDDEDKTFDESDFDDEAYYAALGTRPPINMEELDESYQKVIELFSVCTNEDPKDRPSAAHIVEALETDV
Experimental details: radiometric filter-binding kinase assay, Kinase HotSpot
Conditions used: compound 0.5 µM; ATP 10 µM
Quick list: residual activity per entry.
Use % as the unit, but write only the number.

O=C1NC(=O)C(c2cn(CCCO)c3ncccc23)=C1c1cnccn1; 94.9
CN(C)C[C@H]1CCn2c(c(C3=C(c4cn(C)c5ccccc45)C(=O)NC3=O)c3ccccc32)C1; 101
Cn1nc2c3c(cccc31)C(=O)c1ccccc1-2; 108
O=C(Nc1cccc(Nc2cc(Nc3cccc(C(F)(F)F)c3)ncn2)c1)C1CC1; 103

Return residual activity (reported value) for this compound: O=C1Cc2c([nH]c3ccc(Br)cc23)-c2ccccc2N1 99.3

Return reported residual activity. Input compound: Oc1ccc(Nc2nc(-c3ccc(Cl)cc3)cs2)cc1 100

Give the reported residual activity for this compound. COc1ccc(CNC(=O)Nc2ncc([N+](=O)[O-])s2)cc1 110

Look up and state reported residual activity for O=C1NC(=O)/C(=C\c2ccc3nccnc3c2)S1 93

Retrieve residual activity measured for Nc1nnc2[nH]c3ccccc3nc1-2 and print it. 106

###

Form field: residual activity (one value per entry).
Target or test system: ACVR1B (human)
Experimental details: radiometric filter-binding kinase assay, Kinase HotSpot
Conditions used: compound 0.5 µM; ATP 10 µM
Answer with the value and then the unit.

Please review the entries below; each comes with its answer.
CC(=O)O/N=C1\C(=C2\C(=O)Nc3cc(Br)ccc32)Nc2ccccc21; 98.2%
CCn1cnc2c(Nc3cccc(Cl)c3)nc(N[C@@H]3CCCC[C@@H]3N)nc21; 110%
O=C1Nc2ccccc2/C1=C1/Nc2ccccc2/C1=N\OCCC(O)CO (stereo unspecified); 110%

GET residual activity | system: ACVR1B (human) | item: CCN(CC)CCCCN1c2ccccc2Oc2ccc(Cl)cc21 105%

// output residual activity; input O=C1Nc2ccccc2/C1=C1\Nc2ccccc2\C1=N/O ; system ACVR1B (human) 102%

Give residual activity for this entry on ACVR1B (human): Oc1ccc(Nc2nc(-c3ccc(Cl)cc3)cs2)cc1 89.5%

Provide residual activity, tested on ACVR1B (human), for O=C1NC(=O)C(c2c[nH]c3ccccc23)=C1c1c[nH]c2ccccc12 . 112%

Please look at COc1cc2ncnc(N3CCN(C(=O)Nc4ccc(Oc5ccccc5)cc4)CC3)c2cc1OC and tell me its recorded residual activity on ACVR1B (human). 94.7%

# return residual activity for Cn1sc(=O)n(Cc2ccccc2)c1=O , test system: ACVR1B (human) 103%

Print ACVR1B (human) residual activity for Cc1nc2cc3nc(-c4cccs4)cnc3cc2n1C . 104%

Look up and report residual activity, with ACVR1B (human) as system, for CN([C@@H](Cc1ccc(OS(=O)(=O)c2cccc3cnccc23)cc1)C(=O)N1CCN(c2ccccc2)CC1)S(=O)(=O)c1cccc2cnccc12 98.7%

Look up and report measured residual activity (ACVR1B (human)) for the following molecule: COc1ccc(OC)c2c(=S)c3ccccc3[nH]c12 108%

Identify measured residual activity obtained with ACVR1B (human) for CN(C)C[C@H]1CCn2c(c(C3=C(c4cn(C)c5ccccc45)C(=O)NC3=O)c3ccccc32)C1 . 98.2%

Report residual activity under test system ACVR1B (human) for O=C1NC(=O)/C(=C\c2ccc3nccnc3c2)S1 . 109%

// fetch residual activity for Nc1nccc(-c2c(-c3ccc(F)cc3)ncn2C2CCNCC2)n1 ; system: ACVR1B (human) 121%

Report residual activity under test system ACVR1B (human) for COc1ccc(CNC(=O)Nc2ncc([N+](=O)[O-])s2)cc1 . 102%

###

Target or test system: NEK6 (human) (UniProt Q9HC98)
Sequence (Q9HC98 whole entry, looked up): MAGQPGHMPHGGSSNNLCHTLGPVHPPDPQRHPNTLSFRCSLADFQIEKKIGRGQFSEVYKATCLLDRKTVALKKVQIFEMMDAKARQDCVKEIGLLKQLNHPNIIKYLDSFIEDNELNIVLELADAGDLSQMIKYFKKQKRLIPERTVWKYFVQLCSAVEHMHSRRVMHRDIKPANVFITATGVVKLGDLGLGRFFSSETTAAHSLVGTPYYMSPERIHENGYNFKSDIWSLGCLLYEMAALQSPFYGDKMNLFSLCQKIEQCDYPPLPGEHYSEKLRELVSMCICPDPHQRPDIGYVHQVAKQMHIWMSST
Experimental details: radiometric filter-binding kinase assay, Kinase HotSpot
Conditions used: compound 0.5 µM; ATP 10 µM
This section presents compounds with their documented residual activity values.
The reply should consist of the numeric value with the unit placed after it.

Some solved entries appear below for comparison.
COc1ccc(OC)c2c(=S)c3ccccc3[nH]c12; 101%
O=C1NC(=O)C(c2c[nH]c3ccccc23)=C1c1c[nH]c2ccccc12; 101%
CN(C)C[C@H]1CCn2c(c(C3=C(c4cn(C)c5ccccc45)C(=O)NC3=O)c3ccccc32)C1; 94.6%
CCN(CC)CCCCN1c2ccccc2Oc2ccc(Cl)cc21; 107%
CCn1cnc2c(Nc3cccc(Cl)c3)nc(N[C@@H]3CCCC[C@@H]3N)nc21; 102%
COc1ccc(CNC(=O)Nc2ncc([N+](=O)[O-])s2)cc1; 100%
O=C(Nc1cccc(Nc2cc(Nc3cccc(C(F)(F)F)c3)ncn2)c1)C1CC1; 99.2%
O=C1Nc2ccccc2/C1=C1/Nc2ccccc2/C1=N\OCCC(O)CO (stereo unspecified); 96.3%
O=C(O)/C=C/c1cc(Br)c(Br)c(Br)c1Br; 102%
Cn1cnc2cc3c(Nc4cccc(Br)c4)ncnc3cc21; 98.1%

Enter residual activity (test system NEK6 (human) (UniProt Q9HC98)) for O=C1Nc2ccccc2/C1=C1\Nc2ccccc2\C1=N/O 92.2%

###

Target or test system: MERTK (human)
Experimental details: radiometric filter-binding kinase assay, Kinase HotSpot
Conditions used: compound 0.5 µM; ATP 10 µM
The label TRUE is reserved for residual activity strictly under 90%; FALSE covers values equal to or above it.

Examples with answers:
COc1cc2ncc(-c3ccccc3)nc2cc1OC; TRUE
Cn1sc(=O)n(Cc2ccccc2)c1=O; FALSE
Nc1nccc(-c2c(-c3ccc(F)cc3)ncn2C2CCNCC2)n1; FALSE
O=C1Nc2ccccc2/C1=C1/Nc2ccccc2/C1=N\OCCC(O)CO (stereo unspecified); TRUE

hey, is residual activity for CN([C@@H](Cc1ccc(OS(=O)(=O)c2cccc3cnccc23)cc1)C(=O)N1CCN(c2ccccc2)CC1)S(=O)(=O)c1cccc2cnccc12 lower than 90% or not? FALSE

Dear colleague, could you confirm whether residual activity of COc1ccc(OC)c2c(=S)c3ccccc3[nH]c12 falls below 90%? Thanks. TRUE

Given O=C1NC(=O)C(c2c[nH]c3ccccc23)=C1c1c[nH]c2ccccc12 , is recorded residual activity strictly lower than 90%? TRUE

Does the reported residual activity of the following compound sit strictly below 90%? CC(C)c1nn(-c2c(Cl)cccc2Cl)c2nc(Cc3ccc(OCCO)cc3)nc(O)c12 FALSE

###

The entries below come with measured residual activity values attached.
Target or test system: PRKCD (human) (UniProt Q05655)
Sequence (Q05655 whole entry, looked up): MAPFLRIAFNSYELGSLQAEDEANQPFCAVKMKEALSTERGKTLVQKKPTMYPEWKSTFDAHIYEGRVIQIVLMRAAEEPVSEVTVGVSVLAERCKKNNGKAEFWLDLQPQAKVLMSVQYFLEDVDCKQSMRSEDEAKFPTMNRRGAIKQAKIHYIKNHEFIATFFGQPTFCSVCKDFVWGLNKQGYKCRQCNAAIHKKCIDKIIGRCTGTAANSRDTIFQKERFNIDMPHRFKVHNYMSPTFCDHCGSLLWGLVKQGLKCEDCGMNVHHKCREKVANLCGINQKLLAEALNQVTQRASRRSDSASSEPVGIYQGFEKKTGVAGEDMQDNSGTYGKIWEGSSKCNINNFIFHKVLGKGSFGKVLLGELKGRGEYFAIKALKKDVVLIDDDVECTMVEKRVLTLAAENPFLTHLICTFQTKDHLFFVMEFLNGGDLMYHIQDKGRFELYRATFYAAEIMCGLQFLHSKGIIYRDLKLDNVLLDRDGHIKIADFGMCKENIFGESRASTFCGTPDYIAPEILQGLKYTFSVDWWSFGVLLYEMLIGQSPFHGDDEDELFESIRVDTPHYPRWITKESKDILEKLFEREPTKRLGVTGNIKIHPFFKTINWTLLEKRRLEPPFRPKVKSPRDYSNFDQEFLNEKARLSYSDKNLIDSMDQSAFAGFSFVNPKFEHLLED
Experimental details: radiometric filter-binding kinase assay, Kinase HotSpot
Conditions used: compound 0.5 µM; ATP 10 µM
Write the value in % as a bare number.

Cn1cnc2cc3c(Nc4cccc(Br)c4)ncnc3cc21; 91.8
COc1ccc(OC)c2c(=S)c3ccccc3[nH]c12; 103
CN([C@@H](Cc1ccc(OS(=O)(=O)c2cccc3cnccc23)cc1)C(=O)N1CCN(c2ccccc2)CC1)S(=O)(=O)c1cccc2cnccc12; 93

State the measured residual activity (PRKCD (human) (UniProt Q05655)) of Cn1sc(=O)n(Cc2ccccc2)c1=O 94.1

State residual activity on PRKCD (human) (UniProt Q05655). Entry: Oc1ccc(Nc2nc(-c3ccc(Cl)cc3)cs2)cc1 86.9

Print PRKCD (human) (UniProt Q05655) residual activity for COc1ccc(CNC(=O)Nc2ncc([N+](=O)[O-])s2)cc1 . 100

Give residual activity for this entry on PRKCD (human) (UniProt Q05655): COc1cc2ncnc(N3CCN(C(=O)Nc4ccc(Oc5ccccc5)cc4)CC3)c2cc1OC 84.3

# assay system PRKCD (human) (UniProt Q05655): give residual activity of O=C1Nc2ccccc2/C1=C1\Nc2ccccc2\C1=N/O 95

Write residual activity of Cc1nc2cc3nc(-c4cccs4)cnc3cc2n1C ; system used: PRKCD (human) (UniProt Q05655) 78.6
